TEST: Human Hepatocyte Intrinsic Clearance Assay
EXPERIMENTAL SETUP: human, cryopreserved human hepatocytes pooled from 20 donors
VALUE KIND: hepatocyte CLint at 500 nM (µL/min/1e6 cells)

In [3]: df
Out[3]:
                            compound_string  reading
0  CC(C)(C)S(=O)(=O)C[C@H](C1CC1)N1C(=O)[C@@](C)(CC(N)=O)C[C@H](c2cccc(Cl)c2)[C@H]1c1ccc(Cl)cc1       26
1  CC(C)(C)S(=O)(=O)C[C@H](C1CC1)N1C(=O)[C@@](C)(CC(=O)Nc2ccccc2)C[C@H](c2cccc(Cl)c2)[C@H]1c1ccc(Cl)cc1       28

[I] COc1cc(NC(=O)C[C@@]2(C)C[C@H](c3cccc(Cl)c3)[C@@H](c3ccc(Cl)c(F)c3)N([C@H](CS(=O)(=O)C(C)(C)C)C3CC3)C2=O)ccc1C(=O)O
[II] CC(C)(C)S(=O)(=O)C[C@H](C1CC1)N1C(=O)[C@@](C)(CC(=O)O)C[C@H](c2cccc(Cl)c2)[C@H]1c1ccc(Cl)c(F)c1
QUERY: Of I and II , which one carries the higher reported hepatocyte CLint at 500 nM? Please reply using the label of the selected record.
RESULT: II
(II: 26 µL/min/1e6 cells, I: 1.45 µL/min/1e6 cells)
